# measurementProtocol: in vitro
# condition: human, Calu-3 cells, cell viability, Figure S7G, peptide concentration 1000
Ends that are not written are not given here.

| sequenceInput | viability at 24 h / % |
| --- | --- |
| GRKKRRQRRRPPQDYKDDDDK [FLAG] | 92 |

====

# measurementProtocol: in vitro
# condition: Vero E6 cells, cell viability, Figure S7F, peptide concentration 1000
Ends that are not written are not given here.

| sequenceInput | viability at 24 h, % |
| --- | --- |
| GRKKRRQRRRPPQDYKDDDDK [FLAG] | 94.8 |

====

# assayedTarget: hHGS 1-390-6 × HIS protein (Homo sapiens, UniProt O14964)
# Sequence (O14964 1-390): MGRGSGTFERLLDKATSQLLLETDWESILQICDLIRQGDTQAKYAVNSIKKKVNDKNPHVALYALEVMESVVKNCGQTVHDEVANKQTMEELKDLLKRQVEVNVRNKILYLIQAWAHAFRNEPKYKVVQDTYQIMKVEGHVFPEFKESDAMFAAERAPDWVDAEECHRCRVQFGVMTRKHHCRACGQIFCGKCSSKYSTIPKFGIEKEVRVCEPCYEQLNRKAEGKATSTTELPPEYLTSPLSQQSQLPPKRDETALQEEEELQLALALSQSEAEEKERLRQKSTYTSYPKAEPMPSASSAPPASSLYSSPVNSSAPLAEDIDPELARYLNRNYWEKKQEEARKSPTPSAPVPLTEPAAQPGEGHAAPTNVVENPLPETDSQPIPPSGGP
# measurementProtocol: SPR binding of immobilized M peptides to HGS
# condition: without RTB; read-out: KD, binding affinity of peptide with HGS (SPR)
Ends that are not written are not given here.

| sequenceInput | Kd / nM |
| --- | --- |
| GRKKRRQRRRPPQESELVIGAVILR [M146] | 5.73 |
